Record form. Attribute: INHIBITION. Fill in for each entry.
test system: Plasmodium falciparum; assay: Screen against P. falciparum Asexual Blood Stage (ABS), at 5uM; type: functional, Dd2; conditions: tested at 5 uM
Screen size: about 65,000 compounds; about 2,100 (3.2%) showed an effect of 50% or more. The median lay at about -52%. Shown is part of a subset that was picked to be rich in strong results.
Numbers only, in %.

Example cases with answers are listed next.
>>> test_value("CCN1CCC2(C=C(C(=O)N(C)C)c3ccccc32)CC1")
-0.272
>>> test_value("CS(=O)(=O)N1CCC(c2ccncn2)CC1")
-94.7
>>> test_value("CC(C)N1CCC2(C=C(C(=O)N(C)C)c3ccccc32)CC1")
-3.5
>>> test_value("Cc1ccc(NC(=O)CC2Cn3ncnc3NC2=O)cc1C (stereo unspecified)")
-65.7
>>> test_value("CN1CCC2(C=C(C(=O)N(C)C)c3ccccc32)CC1")
61.5

Now consider the entry below.
What INHIBITION value was documented for this compound, Cc1ccc(S(=O)(=O)N2C[C@H]3C[C@H](NC(=O)c4ccccn4)[C@H]3C2)cc1 ?
-55.2
